Test system: MS2 coat protein
RUN_DESCRIPTION: apparent KD of MS2 coat protein; designed switch direction (-1 OFF switch, 1 ON switch): -1; higher = weaker reporter binding
SETTINGS: Eterna round: R95; input ligand: microRNA oligo, concentration not stated

{"SEQ_TEXT": "AGUAGUAGUAUCCGUUCUUACAUGAGGAUCACCCAUGUUUCUAGACGUGCACGCGAUGCUCGUCAGACUACCAGAUG [salish99_TOv1_r3_054] (puzzle: Sensor v3, turn-off variant 1)", "apparent KD of MS2 coat protein, nM": 72.3}
{"SEQ_TEXT": "CAGGUGUUAGGAUAUCGGAGGUUGAGGCAGACGGGAAUAUUCGAGAAGGAACAUGAGGAUCACCCAUGUAGUAG [JR_Exclu4_Sub037] (puzzle: Exclusion 4)", "apparent KD of MS2 coat protein, nM": 21.5}
{"SEQ_TEXT": "GAUUAUGCGAGCUUUAGGGACAUGAGGAUCACCCAUGUUCGUCUUAUUAGUCUAGGUACGCUAACAUACCUAAAUCU [JMF 40] (puzzle: Sensor v3, turn-off variant 1)", "apparent KD of MS2 coat protein, nM": 35.9}
{"SEQ_TEXT": "CCGCAUAAGCAGGAUAUCGUAUCGGAAACGAUACGAGAAGGGUUUACAUGAGGAUCACCCAUGUUCCUUAGCGG [Mat - Exclusion 6 - Eli Mod - D100] (puzzle: Exclusion 6)", "apparent KD of MS2 coat protein, nM": 31.5}
{"SEQ_TEXT": "UAGAAUCGAGGAUAUACAUGAGGAUCACCCAUGUGUUGCCGCAUGAUGUGAUCGUCAGGUAGAAGGCGAUUAUA [Exclusion 3 - Mod of Jieux's Gilly Gone Silly 23 v.7] (puzzle: Exclusion 3)", "apparent KD of MS2 coat protein, nM": 35.4}
{"SEQ_TEXT": "AGAAAUGCCCAUGGCCGCAAGCCUUUUGCUUGUCUUACCACAUGAGGAUCACCCAUGUGACAUGGGCUCCUUAUAAU [Verileve] (puzzle: Sensor v3, turn-off variant 2)", "apparent KD of MS2 coat protein, nM": 9.2}
{"SEQ_TEXT": "GAUUGACAUGAGGAUCACCCAUGUGAGGAUAUCGGCCGGACCUUGUUAGCUUCCACCGCGAGAAGGCACAUAGG [Exclusion 1 V31] (puzzle: Exclusion 1)", "apparent KD of MS2 coat protein, nM": 25.3}
{"SEQ_TEXT": "CUCUUGUCAGGAUAUCAACGCCGCCCACACGGGCGGCGAAAUGAGAAGGGACAUGAGGAUCACCCAUGUUAAAA [Orsoesarqu] (puzzle: Exclusion 4)", "apparent KD of MS2 coat protein, nM": 133}
{"SEQ_TEXT": "UUUUACGCAGGAUAUACAUUUUUUUUAUUAUCCUCAUUAUUACAUGAGGAUCACCCAUGUAGAAGGGCGAUUUU [My Design] (puzzle: Exclusion 2)", "apparent KD of MS2 coat protein, nM": 38.8}
{"SEQ_TEXT": "CUUCGUAUAGAGGAUAUAGGUUACCUCGGUAUCCUAGAAGGCUGUACAUGAGGAUCACCCAUGUACUUCAGAUC [Exclusion 6 - B - 13:b] (puzzle: Exclusion 6)", "apparent KD of MS2 coat protein, nM": 12.7}
{"SEQ_TEXT": "GUUAAGUGAGGAUAUGGUGAGUAGUGCCAGAGCGCUGCUCACCAGAAGGCACAUGAGGAUCACCCAUGUAUAGC [Mat - Exclusion 4 - Mod of JL - D15] (puzzle: Exclusion 4)", "apparent KD of MS2 coat protein, nM": 13}
{"SEQ_TEXT": "GAUUAUGCGAGCUUUAGGGACAUGAGGAUCACCCAUGUUCGUCUUAUUGAUCUAGGUGCACUAACAUACCUAAAUCU [JMF 34] (puzzle: Sensor v3, turn-off variant 1)", "apparent KD of MS2 coat protein, nM": 41.2}
{"SEQ_TEXT": "AAAGAAGAGAGAAAAUAACACAUGAGGAUCACCCAUGUGAGAAGUUGAGGGUGAUACAGGCUUUAUGCUCGUCUUAU (puzzle: Sensor v3, turn-off variant 1)", "apparent KD of MS2 coat protein, nM": 204}
{"SEQ_TEXT": "CAGGAUAGAGGAUAUACAUAGAUACAGAUUCAUAUAAUCCUACAUGAGGAUCACCCAUGUAGAAGGCUAUCCUG [Fiskers Ex 2 - 25] (puzzle: Exclusion 2)", "apparent KD of MS2 coat protein, nM": 14.5}
{"SEQ_TEXT": "UAUAAAACAUAGGAUAUCGAAAUUAUCAUUUAACGAGAAGGAUGAACAUGAGGAUCACCCAUGUGGUAUCAUGG [Mat - Exclusion 6 - JL Mod - D10] (puzzle: Exclusion 6)", "apparent KD of MS2 coat protein, nM": 425}
{"SEQ_TEXT": "CUUUGACAUGAGGAUCACCCAUGUGAGGAUAUGAUGCGAUCGUCGAAAGACGAUAGCAUCAGAAGGCACAUAUG [Fiskers Ex 1 - 7] (puzzle: Exclusion 1)", "apparent KD of MS2 coat protein, nM": 92.6}
{"SEQ_TEXT": "UUUUAACAUGAGGAUCACCCAUGUGAGGAUAUCGUUAUUUUUAUUAAUAUUAAUAAAACGAGAAGGCACAUUUU [JMF 14] (puzzle: Exclusion 1)", "apparent KD of MS2 coat protein, nM": 98.3}
{"SEQ_TEXT": "GUCAUACAUGAGGAUCACCCAUGUAAGGAUAUGCUAGCGGUCGGCUGACUGACUGCUAGCAGAAGGUACAUGAU (puzzle: Exclusion 1)", "apparent KD of MS2 coat protein, nM": 61.5}
{"SEQ_TEXT": "GUAGAGUAAGGAUAUCGUGAAUAGGAUAGAAUGGUUAGAAACGAGAAGGUACAUGAGGAUCACCCAUGUAAUGU [Excluse me!!!! 17 - Jieux - Exclusion 4] (puzzle: Exclusion 4)", "apparent KD of MS2 coat protein, nM": 20.8}
{"SEQ_TEXT": "AGAAGUAGAAACCGAUCCUACAUGAGGAUCACCCAUGUAGCAAGACGUGCACGCGAAGCUCGUCAGACUACCAGAAG [salish99_TOv1_r3_001] (puzzle: Sensor v3, turn-off variant 1)", "apparent KD of MS2 coat protein, nM": 821}
{"SEQ_TEXT": "UAGUGGCAAGGAUAUACAGAGGAGAGGAUUGCAAGAGGUGGACAUGAGGAUCACCCAUGUAGAAGGUGCAGAGA [JR_Exclu2_Sub022] (puzzle: Exclusion 2)", "apparent KD of MS2 coat protein, nM": 252}
